Target: T1, marmoset IL-17A (marmoset, IL-17A is a disulfide-linked homodimer. One chain is given.)
T1 chain: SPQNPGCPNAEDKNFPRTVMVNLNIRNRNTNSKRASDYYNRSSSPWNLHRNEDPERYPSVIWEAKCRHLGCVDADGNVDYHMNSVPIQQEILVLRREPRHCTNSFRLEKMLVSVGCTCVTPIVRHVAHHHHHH
Test: ELISA, coated IL-17A
metric: OD (OD)
Expressed in OD, but write only the number.

Look over these answered cases.
binder	metric	quantity_unit	result_value
13B05 (VHH, Class 4) VHH: EVQLVESGGRLVQAGGSLRLSCAASGRTFTSYPMGWFRQAPGKEREFVAAISMSGDDTAYTDFVRGRFTISRDDARNTVYLHMTSLKPEDTAVYYCAARTSYDGTYDYIDDYSYWGQGTQVTVSS	OD	OD	1.91
24B08 (VHH, Class 3) VHH: EVQLVESGGGLVQAGGSLRLSCAVSGGTFSTYKMGWFRQAPGKEREIVARISTNGPTAYAEFVKGRFTVSRENTKNTVYLQMNSLNIEDTAVYYCAAGYDSLFAGYDYWGQGTQVTVSS	OD	OD	0.129
16A04 (VHH, Class 3; also called IL17MS16A04) VHH: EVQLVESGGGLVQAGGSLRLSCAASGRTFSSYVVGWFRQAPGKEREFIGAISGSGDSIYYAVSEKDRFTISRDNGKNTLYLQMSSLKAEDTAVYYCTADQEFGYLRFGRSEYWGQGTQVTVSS	OD	OD	0.019
03C07 (VHH, Class 2) VHH: EVQLVESGGGLVQAGGSLRLSCAASGFTFDDYAIGWFRQAPGKEREAVSCFSSSDGSIYYADSVKGRFTISSDNAKNTVYLQMNSLKPEDTAVYYCAGGGGSYYYTQLNYCYDMDYWGKGTQVTVSS	OD	OD	1.7
13E02 (VHH, Class 4; also called IL17MS13E02) VHH: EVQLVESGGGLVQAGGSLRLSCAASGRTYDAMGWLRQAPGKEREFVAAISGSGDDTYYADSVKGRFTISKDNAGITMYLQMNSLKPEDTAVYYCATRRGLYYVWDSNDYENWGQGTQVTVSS	OD	OD	1.85

Fill blank: measured OD of the binder 02A08 (VHH, Class 2) VHH: EVQLVESGGGVVQPGGSLRLSCADSERSFSFNAMGWFRQAPGKEREFVAAISATGDDTYYADSVKGRFAISRDTARNTVYLQMNSLKPEDTAVYYCGARVNFDGTVSYTNDYAYWGQGTQVTVSS is ____.
1.95

Consider the binder shown here: 11C08 (VHH, Class 4) VHH: EVQLVESGGGLVQAGGSLRLSCAASGVIFRLNAMGWYRAAPGKQRELVAIIVNGGSTNYADSVKGRFTISRDSAKNAVYLQMNSLKPEDTAVYYCYYNIPGDVYWGQGTQVTVSS What is its recorded OD?
0.671

Source of measurements: patent US20210130452A1
